Target: human OX1 receptor (Homo sapiens, UniProt O43613)
Construct: expressed in transfected cells; host or cells: CHO cells
Sequence (O43613 whole entry): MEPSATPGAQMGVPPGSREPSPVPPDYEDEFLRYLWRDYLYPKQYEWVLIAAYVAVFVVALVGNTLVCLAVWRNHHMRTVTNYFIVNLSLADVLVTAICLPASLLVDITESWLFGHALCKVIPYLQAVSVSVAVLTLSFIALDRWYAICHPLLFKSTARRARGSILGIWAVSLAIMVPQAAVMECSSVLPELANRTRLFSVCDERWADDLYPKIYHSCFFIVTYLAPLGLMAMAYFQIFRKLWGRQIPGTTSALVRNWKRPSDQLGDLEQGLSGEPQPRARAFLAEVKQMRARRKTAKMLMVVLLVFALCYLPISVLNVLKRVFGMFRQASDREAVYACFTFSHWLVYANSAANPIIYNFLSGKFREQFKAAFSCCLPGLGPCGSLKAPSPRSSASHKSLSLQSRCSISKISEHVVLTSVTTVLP
Procedure details: Measurement of orexin receptor antagonistic activity (calcium fluorescence, FLIPRtetra)
Type: cell-based
Experimental context: CHO, 10 μM test compound; CHO cells expressing human OX1 receptor; OX-A 1 nM; read-out: Human Orexin1 receptor inhibition (at 10 μM)
Protocol: Measurement of Orexin Receptor Antagonistic Activity CHO cells forcibly expressing human OX1 receptor or human OX2 receptor were seeded in each well of 384 well black transparent bottom plate (BD Falcon) at 7,500 cells/well, and cultured for one day in a 5% CO2 incubator at 37° C. […] The plate was stood for 30 min in a 5% CO2 incubator at 37° C., and further stood at room temperature for 30 min. […]
Structures can show the parent of a compound that is named as a salt.
Observation type: inhibition at 10 µM (%)

INSERT INTO results (compound, target, recorded_measurement) VALUES
  ('Cc1cc(N2CCN(C(=O)c3ccccc3-n3nccn3)[C@H](C)CO2)nc(C)n1', 'human OX1 receptor (Homo sapiens, UniProt O43613)', 53),
  ('COc1cc(N2CCN(C(=O)c3ccccc3-c3nccs3)CCO2)ccn1', 'human OX1 receptor (Homo sapiens, UniProt O43613)', 19),
  ('Cc1cc(N2CCN(C(=O)c3c(F)cccc3-n3nccn3)CCO2)nc(C)n1 [Example 16, hydrochloride]', 'human OX1 receptor (Homo sapiens, UniProt O43613)', 21),
  ('Cc1cc(N2C[C@@H](C)N(C(=O)c3ccccc3-c3nccs3)[C@@H](C)CO2)nc(C)n1', 'human OX1 receptor (Homo sapiens, UniProt O43613)', 23);

A: CCc1ccc(-n2nccn2)c(C(=O)N2CCON(c3cc(C)nc(C)n3)CC2)c1
B: Cc1ccc(-n2nccn2)c(C(=O)N2CCON(c3cc(C)nc(C)c3)CC2)c1
C: Cc1ccc(-n2nccn2)c(C(=O)N2CCN(c3ccc(F)cn3)OC[C@H]2C)c1
D: Cc1nc(N2CCN(C(=O)c3ccccc3-c3nccs3)C[C@H](C)O2)cc(C(F)(F)F)n1
Order by inhibition at 10 µM, ascending. Submit the labels in the order that the ranking request calls for.
B, A, C, D
